Reference source for all entries: paper PMC5018819

- ASSAYED SYSTEM: HsCKα1 (Homo sapiens, UniProt P35790)
- Construct: made in house
- Sequence (P35790 whole entry): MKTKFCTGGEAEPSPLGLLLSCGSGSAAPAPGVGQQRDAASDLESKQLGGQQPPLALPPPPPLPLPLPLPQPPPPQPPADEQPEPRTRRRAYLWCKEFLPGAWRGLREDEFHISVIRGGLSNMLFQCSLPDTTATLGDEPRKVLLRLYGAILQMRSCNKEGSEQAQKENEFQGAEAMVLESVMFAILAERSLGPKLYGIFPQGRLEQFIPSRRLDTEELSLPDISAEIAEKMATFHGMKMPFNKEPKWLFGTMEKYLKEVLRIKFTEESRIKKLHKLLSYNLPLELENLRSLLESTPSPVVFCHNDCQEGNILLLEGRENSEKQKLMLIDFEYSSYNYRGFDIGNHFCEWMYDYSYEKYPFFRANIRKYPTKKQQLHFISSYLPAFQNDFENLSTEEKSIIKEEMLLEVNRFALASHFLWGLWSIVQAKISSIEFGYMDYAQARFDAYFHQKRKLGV
- EXPERIMENT DESCRIPTION: Ki determination and mode of inhibition
- Type: biochemical
- STATED CONDITIONS: ATP as variable substrate; read-out: Ki, HsCKα1, ATP
RECORDED ENDPOINT: pKi
Answer as the number alone; pKi is minus log10 of concentration in mol/L.

Give the reported pKi for this compound. CN(C)c1cc[n+](Cc2ccc(-c3ccc(C[n+]4ccc(N5CCCC5)cc4)cc3)cc2)cc1.[Br-].[Br-] [BR23]
5.43

Give the reported pKi for this compound. CN(C)c1cc[n+](Cc2ccc(CCCCc3ccc(C[n+]4ccc(N5CCCC5)cc4)cc3)cc2)cc1.[Br-].[Br-] [BR25]
5.39

----------
Kd values recorded for HsCKα1 (Homo sapiens, UniProt P35790)
Express it in nM; write the number only.

compound="CN(C)c1cc[n+](Cc2ccc(CCCCc3ccc(C[n+]4ccc(N5CCCC5)cc4)cc3)cc2)cc1.[Br-].[Br-] [BR25]" reported_measurement=352

We next turn to a different compound, shown below.
Determine reported Kd for CN(C)c1cc[n+](Cc2ccc(-c3ccc(C[n+]4ccc(N5CCCC5)cc4)cc3)cc2)cc1.[Br-].[Br-] [BR23] ; test system: HsCKα1 (Homo sapiens, UniProt P35790).
521

----------
- ASSAYED SYSTEM: PfCK (Plasmodium falciparum, UniProt Q8IM71)
- Construct: made in house
- Sequence (Q8IM71 1-440): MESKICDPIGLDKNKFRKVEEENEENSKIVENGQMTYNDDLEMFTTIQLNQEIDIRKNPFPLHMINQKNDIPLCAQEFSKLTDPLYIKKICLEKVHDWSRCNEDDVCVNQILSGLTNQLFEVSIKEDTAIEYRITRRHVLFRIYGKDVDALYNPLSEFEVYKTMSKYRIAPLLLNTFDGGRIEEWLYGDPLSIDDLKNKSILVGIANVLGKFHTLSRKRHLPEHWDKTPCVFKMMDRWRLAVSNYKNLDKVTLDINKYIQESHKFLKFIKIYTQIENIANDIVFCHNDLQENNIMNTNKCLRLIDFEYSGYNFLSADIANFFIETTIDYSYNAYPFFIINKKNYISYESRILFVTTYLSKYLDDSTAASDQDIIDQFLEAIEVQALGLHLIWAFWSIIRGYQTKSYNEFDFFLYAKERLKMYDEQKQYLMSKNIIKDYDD
- EXPERIMENT DESCRIPTION: Ki determination and mode of inhibition
- Type: biochemical
- STATED CONDITIONS: ATP as variable substrate; read-out: Ki, PfCK, ATP
RECORDED ENDPOINT: pKi
Answer as the number alone; pKi is minus log10 of concentration in mol/L.

compound="CN(C)c1cc[n+](Cc2ccc(-c3ccc(C[n+]4ccc(N5CCCC5)cc4)cc3)cc2)cc1.[Br-].[Br-] [BR23]" reported_measurement=3.94

We next turn to a different compound, shown below.
Determine reported pKi for CN(C)c1cc[n+](Cc2ccc(CCCCc3ccc(C[n+]4ccc(N5CCCC5)cc4)cc3)cc2)cc1.[Br-].[Br-] [BR25] ; test system: PfCK (Plasmodium falciparum, UniProt Q8IM71).
4.18

----------
- ASSAYED SYSTEM: PfCK (Plasmodium falciparum, UniProt Q8IM71)
- Construct: made in house
- EXPERIMENT DESCRIPTION: Ki determination and mode of inhibition
- Type: biochemical
- STATED CONDITIONS: read-out: Ki, PfCK, Cho; Cho as variable substrate
pKi values by entry
Answer as the number alone; pKi is minus log10 of concentration in mol/L.

smiles_string=CN(C)c1cc[n+](Cc2ccc(CCCCc3ccc(C[n+]4ccc(N5CCCC5)cc4)cc3)cc2)cc1.[Br-].[Br-] assayed_system="PfCK (Plasmodium falciparum, UniProt Q8IM71)" recorded_endpoint=pKi reported_measurement=4.50

We next turn to a different compound, shown below.
Give the reported pKi for this compound. `CN(C)c1cc[n+](Cc2ccc(-c3ccc(C[n+]4ccc(N5CCCC5)cc4)cc3)cc2)cc1.[Br-].[Br-]`
4.42

----------
- ASSAYED SYSTEM: PfEK (Plasmodium falciparum)
- Sequence (Q8IIB7 2-420): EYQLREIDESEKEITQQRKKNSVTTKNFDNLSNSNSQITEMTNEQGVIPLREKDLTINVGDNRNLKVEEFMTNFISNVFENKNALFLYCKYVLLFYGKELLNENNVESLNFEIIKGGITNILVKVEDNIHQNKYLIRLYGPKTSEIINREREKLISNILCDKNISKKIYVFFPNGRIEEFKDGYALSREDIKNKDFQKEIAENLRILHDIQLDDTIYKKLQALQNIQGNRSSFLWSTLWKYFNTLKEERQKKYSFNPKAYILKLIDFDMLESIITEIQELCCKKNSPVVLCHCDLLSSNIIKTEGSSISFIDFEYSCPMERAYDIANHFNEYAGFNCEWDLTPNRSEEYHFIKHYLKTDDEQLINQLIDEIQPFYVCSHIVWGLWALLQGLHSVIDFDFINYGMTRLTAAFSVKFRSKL
pIC50: −log10 of the molar value.
RECORDED ENDPOINT: pIC50

Give the reported pIC50 for this compound. `CN(C)c1cc[n+](Cc2ccc(-c3ccc(C[n+]4ccc(N5CCCC5)cc4)cc3)cc2)cc1.[Br-].[Br-]`
< 3.30

Give the reported pIC50 for this compound. `CN(C)c1cc[n+](Cc2ccc(CCCCc3ccc(C[n+]4ccc(N5CCCC5)cc4)cc3)cc2)cc1.[Br-].[Br-]`
< 3.30
